Hello, the source for this data is patent US20120316071A1, in case you need it.

TARGET_OR_TEST_SYSTEM: T1, Recombinant Human DLL4 (human, UniProt Q9NR61 27-524)
T1 construct: Bought recombinant human DLL4 (R&D Systems 1506-D4/CF); also called delta-like protein 4; rHuman DLL4
ASSAY_DETAILS: ELISA on plate-coated DLL4, Fab at 20 nM (3-fold serial dilution)
In this section we review reported ELISA signal values for a set of binders.
Enter the number alone.

*Q* Look up and report measured ELISA signal for this entry: Fab VH1-46_IGHD6-6*01_IGHJ1*01 S102A/S103P/S104F/H111F I51A/N52L/S54T/G56H & L6_IGKJ1*01 S28N/S30D/S31H S52L/A55S (Fab, V domains shown, Fab expressed in E. coli: VH joined to CH1 from Plasmid A (His6 and Flag tags), VL joined to kappa CL from Plasmid C; also called H:APFF ALTH & L:NDH LS) VH: QVQLVQSGAEVKKPGASVKVSCKASGYTFTSYYMHWVRQAPGQGLEWMGIALPTGHSTSYAQKFQGRVTMTRDTSTSTVYMELSSLRSEDTAVYYCAREEYAPFSAEYFQFWGQGTLVTVSS VL: EIVLTQSPATLSLSPGERATLSCRASQNVDHYLAWYQQKPGQAPRLLIYDALNRSTGIPARFSGSGSGTDFTLTISSLEPEDFAVYYCQQRSNWPPWTFGQGTKVEIKR
*A* 0.458

*Q* Quickly give me recorded ELISA signal for Fab VH1-46_IGHD6-6*01_IGHJ1*01 S102A/S103P/S104F/H111F N52L/S54T/G56H & L6_IGKJ1*01 S28N/S30D/S31H S52L/A55S (Fab, V domains shown, Fab expressed in E. coli: VH joined to CH1 from Plasmid A (His6 and Flag tags), VL joined to kappa CL from Plasmid C; also called H:APFF LTH & L:NDH LS) VH: QVQLVQSGAEVKKPGASVKVSCKASGYTFTSYYMHWVRQAPGQGLEWMGIILPTGHSTSYAQKFQGRVTMTRDTSTSTVYMELSSLRSEDTAVYYCAREEYAPFSAEYFQFWGQGTLVTVSS VL: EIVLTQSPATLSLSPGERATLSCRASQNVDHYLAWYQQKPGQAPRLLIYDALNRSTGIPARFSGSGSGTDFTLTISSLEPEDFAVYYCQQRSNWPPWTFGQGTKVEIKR
*A* 1.05

*Q* Kindly indicate its recorded ELISA signal. Item: Fab VH1-46_IGHD6-6*01_IGHJ1*01 S102A/S103P/S104F/H111F I51V/N52L/S54T/G56H & L6_IGKJ1*01 S28N/S30D/S31H (Fab, V domains shown, Fab expressed in E. coli: VH joined to CH1 from Plasmid A (His6 and Flag tags), VL joined to kappa CL from Plasmid C; also called H:APFF VLTH & L:NDH) VH: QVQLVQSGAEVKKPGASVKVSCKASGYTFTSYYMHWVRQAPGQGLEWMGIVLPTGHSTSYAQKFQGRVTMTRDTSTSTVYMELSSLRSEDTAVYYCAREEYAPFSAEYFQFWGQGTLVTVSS VL: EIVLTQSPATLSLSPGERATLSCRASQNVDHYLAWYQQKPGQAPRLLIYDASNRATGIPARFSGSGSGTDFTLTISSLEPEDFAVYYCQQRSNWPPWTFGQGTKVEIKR
*A* 0.979

*Q* // fetch ELISA signal given entry Fab VH1-46_IGHD6-6*01_IGHJ1*01 S102A/S103P/S104F/H111F I51V/N52L/S54T/G56H & L6_IGKJ1*01 S28N/S30D/S31H S52L/A55S (Fab, V domains shown, Fab expressed in E. coli: VH joined to CH1 from Plasmid A (His6 and Flag tags), VL joined to kappa CL from Plasmid C; also called H:APFF VLTH & L:NDH LS) VH: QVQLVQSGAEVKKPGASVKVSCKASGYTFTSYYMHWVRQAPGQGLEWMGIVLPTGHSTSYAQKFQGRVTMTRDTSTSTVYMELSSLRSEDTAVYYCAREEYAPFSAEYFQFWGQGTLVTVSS VL: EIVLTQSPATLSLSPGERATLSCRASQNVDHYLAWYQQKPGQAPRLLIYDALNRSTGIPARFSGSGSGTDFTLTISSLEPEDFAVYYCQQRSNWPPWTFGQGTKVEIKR
*A* 0.91
